System: Malme-3M
Test: Cytotoxicity against human MALME-3M cells assessed as cell growth at 0.01 uM after 48 hrs by sulforhodamine B assay
Format: functional
Conditions: read-out: Activity
Experimental readout: growth at 0.01 µM
Give the figure together with its unit, number first.

Chem smiles	Tgt	Experimental readout	Reported measurement
COc1cc(C)cc(-c2c(-c3ccnc(-c4ccc(C(C)=O)cc4)c3)cnn2CC#N)c1	Malme-3M	growth at 0.01 µM	93%

Per the record, Cc1cc(O)cc(-c2nn(CC#N)cc2-c2ccnc(-c3ccc(Oc4ccccc4)cc3)c2)c1 has growth at 0.01 µM of 77%

Per the record, COc1cc(C)cc(-c2c(-c3ccnc(-c4ccc(N(C)C)cc4)c3)cnn2CC#N)c1 has growth at 0.01 µM of 34%

Per the record, COc1cc(C)cc(-c2nn(CC#N)cc2-c2ccc(-c3cccc(C(C)=O)c3)nc2)c1 has growth at 0.01 µM of 85%

Per the record, COc1cc(C)cc(-c2nn(CC#N)cc2-c2ccnc(-c3ccc(N(C)C)cc3)c2)c1 has growth at 0.01 µM of 91%

Per the record, Cc1cc(O)cc(-c2nn(CC#N)cc2-c2ccnc(-c3ccc(N(C)C)cc3)c2)c1 has growth at 0.01 µM of 92%

Reference for the values: ChEMBL document CHEMBL1165950
